Target: T1, Human GDF15 Fc (human, UniProt Q99988 195-308, limits assumed, biotinylated (EZ-Link Sulfo-NHS-Biotinylation Kit) in the SPR assay)
T1 construct: also called human GDF15-Fc fusion; biotinylated Human GDF15 Fc; not shown: Fc part
T1 sequence: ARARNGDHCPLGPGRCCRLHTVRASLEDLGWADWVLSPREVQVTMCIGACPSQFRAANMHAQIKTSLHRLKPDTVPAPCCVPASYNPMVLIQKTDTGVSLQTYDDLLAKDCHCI
Assay: BLI Octet; IgG on sensor, 100 nM antigen (avid)
pKd: −log10 of the molar value.
# reported pKd; entries follow
VALUE_KIND: pKd

[[record]]
binder = "GDF15 antibody agent Clone L, IgG (antibody, V domains shown) VH: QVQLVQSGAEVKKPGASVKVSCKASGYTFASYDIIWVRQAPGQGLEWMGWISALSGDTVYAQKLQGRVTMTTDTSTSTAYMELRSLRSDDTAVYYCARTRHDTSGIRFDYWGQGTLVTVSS VL: DIQMTQSPSSVSASVGDRVTITCRASQGIDSWLAWYQQKPGKAPKLLIYAASSLQSGVPSRFSGSGSGTDFTLTISSLQPEDFATYYCQQVHSFPITFGGGTKVEIKR"
value_kind = "pKd"
test_result = 9.49

[[record]]
binder = "GDF15 antibody agent Clone O, IgG (antibody, V domains shown) VH: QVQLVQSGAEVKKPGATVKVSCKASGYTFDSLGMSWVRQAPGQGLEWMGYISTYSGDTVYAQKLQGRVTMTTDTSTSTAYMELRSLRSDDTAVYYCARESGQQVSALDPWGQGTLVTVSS VL: DIQMTQSPSSVSASVGDRVTITCRASQGISRWLAWYQQKPGKAPKLLIYAASSLQSGVPSRFSGSGSGTDFTLTISSLQPEDFATYYCQQGASFPLTFGGGTKVEIKR"
value_kind = "pKd"
test_result = 9.55

[[record]]
binder = "GDF15 antibody agent Clone J, IgG (antibody, V domains shown) VH: QVQLVQSGAEVKKPGASVKVSCKASGYTFTSYGINWVRQAPGQGLEWMGWIDAYSGSTNYAQKLQGRVTMTTDTSTSTAYMELRSLRSDDTAVYYCARGPGQYADVDVWGQGTMVTVSS VL: DIQMTQSPSSVSASVGDRVTITCRASQGISSWLAWYQQKPGKAPKLLIYAASSLQSGVPSRFSGSGSGTDFTLTISSLQPEDFATYYCQQANSFPITFGGGTKVEIKR"
value_kind = "pKd"
test_result = 9.56

[[record]]
binder = "GDF15 antibody agent Clone P, IgG (antibody, V domains shown) VH: QVQLVQSGAEVKKPGATVKVSCKASGYTFDSYGIHWVRQAPGQGLEWMGWITAYSGDTVYAQKLQGRVTMTTDTSTSTAYMELRSLRSDDTAVYYCARESGQTSSALGPWGQGTLVTVSS VL: DIQMTQSPSSVSASVGDRVTITCRASQGISRWLAWYQQKPGKAPKLLIYAASSLQSGVPSRFSGSGSGTDFTLTISSLQPEDFATYYCQQGASFPLTFGGGTKVEIKR"
value_kind = "pKd"
test_result = 9.56


Value source: patent US20250382359A1
